Taken from patent US20230265151A1.

Target: T1, human GIP receptor (human, UniProt P48546 22-466)
T1 sequence (looked up): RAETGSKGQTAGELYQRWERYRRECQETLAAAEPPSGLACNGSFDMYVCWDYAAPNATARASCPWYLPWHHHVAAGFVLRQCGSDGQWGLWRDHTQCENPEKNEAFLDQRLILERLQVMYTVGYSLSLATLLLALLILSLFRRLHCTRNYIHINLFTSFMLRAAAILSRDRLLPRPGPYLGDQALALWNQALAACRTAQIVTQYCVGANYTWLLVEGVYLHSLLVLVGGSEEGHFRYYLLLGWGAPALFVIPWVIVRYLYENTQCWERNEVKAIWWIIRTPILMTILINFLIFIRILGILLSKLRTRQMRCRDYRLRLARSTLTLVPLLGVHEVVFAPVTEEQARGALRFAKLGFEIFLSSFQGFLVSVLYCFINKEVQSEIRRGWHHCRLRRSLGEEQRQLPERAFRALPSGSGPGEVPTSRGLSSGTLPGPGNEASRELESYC
Test: cell-based or functional assay
So basically: is EC50, cAMP under 0.01 nM? Then rule met. Not under? Then rule not met.

Answered cases to consult:
# binder, label_value
records = [
    ("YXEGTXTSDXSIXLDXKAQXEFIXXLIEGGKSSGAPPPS (Aib2, αMeF(2F)6, 4Pal10, αMeL13, Orn16, Aib20, D-Glu24, αMeY25, K17 and K31: K((εK)-(εK)-(γ-Glu)-CO-(CH2)12-CO2H), C-terminal NH2) [Example 40]", "rule not met"),
    ("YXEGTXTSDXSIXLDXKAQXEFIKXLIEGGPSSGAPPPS (Aib2, αMeF(2F)6, Ac5c10, αMeL13, Orn16, Aib20, αMeY25, K17 and K24: K(AEEA2-(γ-Glu)-CO-(CH2)12-CO2H), C-terminal NH2) [Example 116]", "rule not met"),
    ("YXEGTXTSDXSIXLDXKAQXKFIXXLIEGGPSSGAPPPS (Aib2, αMeF(2F)6, 4Pal10, αMeL13, Orn16, Aib20, D-Glu24, αMeY25, K17 and K21: K(AEEA2-CO-(CH2)12-CO2H), C-terminal NH2) [Example 78]", "rule not met"),
    ("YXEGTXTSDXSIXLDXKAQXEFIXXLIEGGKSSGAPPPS (Aib2, αMeF(2F)6, 2Nal10, αMeL13, Orn16, Aib20, D-Glu24, αMeY25, K17 and K31: K(AEEA2-(γ-Glu)-CO-(CH2)12-CO2H), C-terminal NH2) [Example 57]", "rule not met"),
    ("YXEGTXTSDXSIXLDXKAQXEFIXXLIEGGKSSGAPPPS (Aib2, αMeF(2F)6, Ac5c10, αMeL13, Orn16, Aib20, D-Glu24, αMeY25, K17 and K31: K(AEEA2-(γ-Glu)-CO-(CH2)12-CO2H), C-terminal NH2) [Example 53]", "rule not met"),
]

Regarding YXEGTXTSDXSIXLDXIAQXKFIKXLIEGGPSSGAPPPS (Aib2, αMeF(2F)6, 4Pal10, αMeL13, Orn16, Aib20, αMeY25, K21 and K24: K(AEEA2-(γ-Glu)-CO-(CH2)12-CO2H), C-terminal NH2) [Example 69] , kindly confirm whether its EC50, cAMP is beneath 0.01 nM.
rule not met

Regarding YXEGTXTSDXSIXLDXQAQXEFIXXLIKGGKSSGAPPPS (Aib2, αMeF(2F)6, 4Pal10, αMeL13, Orn16, Aib20, D-Glu24, αMeY25, K28 and K31: K(AEEA2-(γ-Glu)-CO-(CH2)12-CO2H), C-terminal NH2) [Example 86] , kindly confirm whether its EC50, cAMP is beneath 0.01 nM.
rule not met

Regarding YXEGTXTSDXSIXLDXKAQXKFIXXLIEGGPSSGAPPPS (Aib2, αMeF(2F)6, 4Pal10, αMeL13, Orn16, Aib20, D-Glu24, αMeY25, K17 and K21: K(AEEA2-(γ-Glu)-CO-(CH2)14-CH3), C-terminal NH2) [Example 21] , kindly confirm whether its EC50, cAMP is beneath 0.01 nM.
rule met

Regarding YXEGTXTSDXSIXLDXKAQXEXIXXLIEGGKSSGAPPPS (Aib2, αMeF6, 4Pal10, αMeL13, Orn16, Aib20, αMeF22, D-Glu24, αMeY25, K17 and K31: K(AEEA2-(γ-Glu)-CO-(CH2)12-CO2H), C-terminal NH2) [Example 47] , kindly confirm whether its EC50, cAMP is beneath 0.01 nM.
rule not met

Regarding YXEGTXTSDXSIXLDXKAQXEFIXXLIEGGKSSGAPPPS (Aib2, αMeF(2F)6, 4Pal10, αMeL13, Orn16, Aib20, D-Glu24, αMeY25, K17 and K31: K(AEEA2-(γ-Glu)-(4-(4-iodophenyl)butanoyl)), C-terminal NH2) [Example 3] , kindly confirm whether its EC50, cAMP is beneath 0.01 nM.
rule not met

Regarding YXEGTXTSDXSIXLDGKAQXEFIXXLIEGGKSSGAPPPS (Aib2, αMeF(2F)6, 4Pal10, αMeL13, Aib20, D-Glu24, αMeY25, K17 and K31: K(AEEA2-(γ-Glu)-CO-(CH2)12-CO2H), C-terminal NH2) [Example 101] , kindly confirm whether its EC50, cAMP is beneath 0.01 nM.
rule not met

Regarding YXEGTXTSDXSIXLDXKAQXEFIXXLIEGXKSSGAPPPS (Aib2, αMeF(2F)6, 4Pal10, αMeL13, Orn16, Aib20, D-Glu24, αMeY25, Orn30, K17 and K31: K(AEEA2-(γ-Glu)-CO-(CH2)12-CO2H), C-terminal NH2) [Example 152] , kindly confirm whether its EC50, cAMP is beneath 0.01 nM.
rule not met

Regarding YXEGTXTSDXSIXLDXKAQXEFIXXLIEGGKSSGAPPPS (Aib2, αMeF(2F)6, 4Pal10, αMeL13, Orn16, Aib20, D-Glu24, αMeY25, K17 and K31: K(AEEA2-(γ-Glu)-(4-(4-tert-butylphenyl)butanoyl)), C-terminal NH2) [Example 4] , kindly confirm whether its EC50, cAMP is beneath 0.01 nM.
rule met
